This collection of values is drawn from patent US8030282B2.

# protocol: Aqueous solubility of polymorphs of Compound Ia
# Assay type: physicochemical
# applied-conditions: water
outcome-measure: solubility (µg/mL)

1) CC[C@H]1OC(=O)[C@H](C)[C@@H](O[C@H]2C[C@@](C)(OC)[C@@H](O)[C@H](C)O2)[C@H](C)[C@@H](O[C@@H]2O[C@H](C)C[C@H](N(C)C(C)C)[C@H]2O)[C@](C)(O)C[C@@H](C)[C@H](OCC(=O)NC)[C@H](C)[C@@H](O)[C@]1(C)O = 770
